Where a name gives a salt, the structure may show the parent alone.
RECORDED_METRIC: melting point

query: Which value of melting point has been reported for NC(=O)c1ccc(F)c2c1CC(NCCc1c[nH]c3ccc(F)cc13)CO2 (stereo not shown) (as salt: hydrochloride) in the records?
result: 134 °C (dec.)

query: Ok, now COc1cccc2c(CCCN(CC3CC3)C3COc4c(F)ccc(C(N)=O)c4C3)c[nH]c12 (stereo not shown) (as salt: hydrochloride)
result: 152 to 158 °C (dec.)

----------
# TARGET_OF_ASSAY: serotonin transporter (Rattus norvegicus, UniProt P31652)
# Construct: displace ^3H-paroxetine from male rat cortical membranes; from tissue; host or cells: male rat cortical membranes
# Sequence (P31652 whole entry): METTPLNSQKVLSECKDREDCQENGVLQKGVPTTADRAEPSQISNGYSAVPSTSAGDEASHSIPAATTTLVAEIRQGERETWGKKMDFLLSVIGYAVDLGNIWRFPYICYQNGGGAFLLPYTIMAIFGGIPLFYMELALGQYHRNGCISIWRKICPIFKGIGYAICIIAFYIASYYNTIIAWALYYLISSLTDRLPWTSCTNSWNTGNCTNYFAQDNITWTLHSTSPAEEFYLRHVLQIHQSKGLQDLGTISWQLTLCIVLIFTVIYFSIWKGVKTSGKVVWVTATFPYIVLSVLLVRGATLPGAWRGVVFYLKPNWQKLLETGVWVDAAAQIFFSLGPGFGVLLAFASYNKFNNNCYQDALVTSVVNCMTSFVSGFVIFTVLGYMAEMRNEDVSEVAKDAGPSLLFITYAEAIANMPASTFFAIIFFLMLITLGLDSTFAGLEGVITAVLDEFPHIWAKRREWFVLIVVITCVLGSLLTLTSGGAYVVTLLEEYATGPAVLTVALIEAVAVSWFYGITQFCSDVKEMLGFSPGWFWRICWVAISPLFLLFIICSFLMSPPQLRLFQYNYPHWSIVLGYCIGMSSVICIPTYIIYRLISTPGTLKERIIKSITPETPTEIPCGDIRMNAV
# ASSAY_NAME: 5-HT transporter affinity: displacement of 3H-paroxetine from male rat cortical membranes
# Assay type: binding
# EXPERIMENTAL_CONDITIONS: displacement of 3H-paroxetine; male rat cortical membranes; read-out: 5-HT Transporter Affinity Ki
We begin with a simple list: items and their reported Ki.
Use nM as the unit, but write only the number.

For orientation, consider the following solved cases.
{"columns": ["COMPOUND", "U", "Ki"],
 "data": [
  ["CCCCN(CCCc1c[nH]c2ccc(F)cc12)C1COc2c(F)ccc(C(N)=O)c2C1 (stereo not drawn)", "nM", 52.5],
  ["CCNC(=O)c1ccc(F)c2c1CC(N(CCCc1c[nH]c3ccc(F)cc13)C1CCC1)CO2 (stereo not drawn)", "nM", 4.86],
  ["C[C@H](CCN(C1CCC1)[C@@H]1COc2c(F)ccc(C(N)=O)c2C1)c1c[nH]c2ccc(F)cc12 [Compound 152b]", "nM", 182],
  ["NC(=O)c1ccc(F)c2c1CC(N(CCCc1c[nH]c3c(F)cc(F)cc13)C1CCC1)CO2 (single isomer, unassigned; (+)) [Compound 9b]", "nM", 12.2],
  ["COc1cccc2c(CCCNC3COc4c(F)ccc(C(N)=O)c4C3)c[nH]c12 (stereo not drawn)", "nM", 525],
  ["CCCN(CCc1c[nH]c2ccc(F)cc12)C1COc2c(F)ccc(C(N)=O)c2C1 (stereo not drawn)", "nM", 60.5],
  ["NC(=O)c1ccc(F)c2c1C[C@@H](NCC1CCc3c([nH]c4ccc(F)cc34)C1)CO2 (single isomer, unassigned; (+)) [Compound 179a]", "nM", 33.2],
  ["COC(=O)c1ccc(F)c2c1CC(N(CCCCc1c[nH]c3ccc(F)cc13)C1CCC1)CO2 (stereo not drawn)", "nM", 35.6]
]}

query: Could you tell me which Ki is on file for CCCN(CCCCn1ccc2c(F)cccc21)C1COc2c(F)ccc(C(N)=O)c2C1 (stereo not drawn) ?
result: 210

query: Could you do the same for NC(=O)c1ccc(F)c2c1CC(N(CCCCn1ccc3cccc(F)c31)CC1CC1)CO2 (stereo not drawn) , please?
result: 38.7

query: Can you check CC(CCc1c[nH]c2c(F)cc(F)cc12)N(CC1CC1)C1COc2c(F)ccc(C(N)=O)c2C1 (single isomer, unassigned) [Compound 154d] next?
result: 4.81

query: // query: NC(=O)c1ccc(F)c2c1CC(N(CCCc1c[nH]c3ccc(F)cc13)CC1CC1)CO2 (stereo not drawn) [Compound 5]
result: 3.6

query: Again, but for CCCNC(=O)c1cccc2c1CC(N(CCCc1c[nH]c3c(F)cc(F)cc13)C1CCC1)CO2 (stereo not drawn)
result: 3.78

query: Please give the result for CNC(=O)c1ccc(F)c2c1C[C@H](N(CCCCc1c[nH]c3ccc(F)cc13)C1CCC1)CO2 [Compound 145a] too.
result: 16.1

query: Can you handle COC(=O)c1ccc(F)c2c1C[C@H](N(CCCCc1c[nH]c3ccc(F)cc13)C1CCC1)CO2 [Compound 58a] next?
result: 46.6
